The reported measurements were obtained from PubChem BioAssay AID430.

# reported cytotoxicity; entries follow
# experimental-protocol: cytotoxicity in HPDE-C7 cells, cell-based, fluorescence, HTS (AID 430);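 further: cells exposed to compound for 48 hours before viability readout; 0% = vehicle and 100% = reference cytotoxic drug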
# run-conditions: HPDE-C7 pancreatic duct cells viability, at 10 µM, stronger effect = higher value
About 1,100 (1.7%) of roughly 63,000 compounds were called active. The full list was thinned out, with actives kept by preference. Potency and affinity values are given separately.
Expressed in %, but write only the number.

Here are 2 compounds together with their reported answers.
compound: O=C(CSc1nnc(NCc2ccccc2)s1)c1ccco1
reading-unit: %
cytotoxicity: -4.8
//
compound: CCOc1ccc(C2CC(=O)c3c([nH]c(C(=O)OC)c3C)C2)cc1OC (stereo unspecified)
reading-unit: %
cytotoxicity: 2.6

O=C(NCCCN1CCOCC1)c1cc2ccccc2oc1=O has a reported cytotoxicity of 3.1

Reported cytotoxicity of O=C(Nc1ccccc1C(=O)N1CCCC1)C1CCN(c2ncccn2)CC1 : -9.4

The compound CCOC(=O)c1[nH]c2c(c1C)C(=O)CC(c1ccc(F)cc1)C2 (stereo unspecified) showed cytotoxicity equal to 70.4

get_value(item= CCCCCOC(=O)c1[nH]c2c(c1C)C(=O)CC(c1ccco1)C2 (stereo unspecified) , readout=cytotoxicity) returns 68.9
